All values here come from ChEMBL document CHEMBL1961873.

- tested on: Protein kinase C iota type (Homo sapiens);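 further: reported figures are mean inhibition values from the GSK PKIS screen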
- stated conditions: at 1 µM
measured endpoint: inhibition (%)
// units = %; emit number, no label

Use these answered entries as a reference point.
> print(dat)
                                smiles.code  unit.tag  test.value
1  COc1ccc(CNC(=O)c2ccc(-c3cc(-c4nnc(C)o4)ccc3C)cc2)cc1         %        0.76
2  CCn1cc(-c2ccnc3[nH]ccc23)c(-c2cccc(NC(=O)Nc3ccc(OCc4ccccc4)cc3)c2)n1         %        0.28
3  Fc1cccc(COc2ccc(Nc3ncnc4sc(-c5ccco5)cc34)cc2Cl)c1         %        2.35

Kindly review the next compound as well.
In plain terms, CNC(=O)c1cccc(C#Cc2cncnc2Nc2ccc(OCc3cccc(F)c3)c(Cl)c2)c1 has a documented inhibition of -0.26
